Provenance of the data: patent US8969386B2

subjectOfTest: ΔF508-CFTR (Homo sapiens, UniProt P13569, DEL508-508)
Construct: expressed in transfected cells
Sequence (P13569 with tags, fused parts or gaps DEL508-508): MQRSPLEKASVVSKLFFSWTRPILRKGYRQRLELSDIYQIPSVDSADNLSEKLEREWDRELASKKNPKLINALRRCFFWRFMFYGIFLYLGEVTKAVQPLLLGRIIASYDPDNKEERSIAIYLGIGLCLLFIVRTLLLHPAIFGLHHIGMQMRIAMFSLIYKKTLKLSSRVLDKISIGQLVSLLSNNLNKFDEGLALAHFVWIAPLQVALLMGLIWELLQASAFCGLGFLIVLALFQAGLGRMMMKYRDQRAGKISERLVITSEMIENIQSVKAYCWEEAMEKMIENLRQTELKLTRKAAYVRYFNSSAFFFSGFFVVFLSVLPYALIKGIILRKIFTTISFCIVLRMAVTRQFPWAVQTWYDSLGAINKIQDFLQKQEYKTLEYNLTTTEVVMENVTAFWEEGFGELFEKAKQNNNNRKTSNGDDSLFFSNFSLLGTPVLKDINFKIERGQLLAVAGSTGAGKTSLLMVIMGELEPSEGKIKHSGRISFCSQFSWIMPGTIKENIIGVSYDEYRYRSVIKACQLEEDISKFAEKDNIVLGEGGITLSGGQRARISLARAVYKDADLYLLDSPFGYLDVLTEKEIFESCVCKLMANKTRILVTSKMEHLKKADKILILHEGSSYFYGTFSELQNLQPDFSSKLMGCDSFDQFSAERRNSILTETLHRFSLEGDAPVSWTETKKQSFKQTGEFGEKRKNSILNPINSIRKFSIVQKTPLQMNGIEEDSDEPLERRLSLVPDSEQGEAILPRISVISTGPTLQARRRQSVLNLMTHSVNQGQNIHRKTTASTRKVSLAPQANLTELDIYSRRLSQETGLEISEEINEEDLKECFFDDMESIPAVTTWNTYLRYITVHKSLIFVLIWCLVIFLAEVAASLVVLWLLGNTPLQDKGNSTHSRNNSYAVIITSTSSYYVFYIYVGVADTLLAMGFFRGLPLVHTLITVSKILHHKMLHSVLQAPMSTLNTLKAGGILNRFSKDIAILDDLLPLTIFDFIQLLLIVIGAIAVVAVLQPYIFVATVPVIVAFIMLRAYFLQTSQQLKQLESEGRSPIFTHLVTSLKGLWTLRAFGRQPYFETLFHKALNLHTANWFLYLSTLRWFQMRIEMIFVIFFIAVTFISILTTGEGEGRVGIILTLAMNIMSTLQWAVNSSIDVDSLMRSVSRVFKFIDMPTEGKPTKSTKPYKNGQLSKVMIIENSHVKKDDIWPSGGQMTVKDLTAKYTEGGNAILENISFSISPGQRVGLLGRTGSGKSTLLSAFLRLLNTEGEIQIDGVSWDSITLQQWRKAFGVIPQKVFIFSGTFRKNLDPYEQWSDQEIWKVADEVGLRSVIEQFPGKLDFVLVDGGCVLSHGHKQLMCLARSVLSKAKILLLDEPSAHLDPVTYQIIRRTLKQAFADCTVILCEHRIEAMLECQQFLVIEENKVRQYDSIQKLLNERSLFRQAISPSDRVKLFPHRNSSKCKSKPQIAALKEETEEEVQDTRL
procedureText: ΔF508-CFTR correction, membrane potential optical (FRET/VIPR) assay
Format: cell-based
conditionLabel: NIH3T3 mouse fibroblasts stably expressing ΔF508-CFTR; read-out: % Efficacy
Text: Assays for Detecting and Measuring ΔF508-CFTR Correction Properties of Compounds Membrane potential optical methods for assaying ΔF508-CFTR modulation properties of compounds […] These voltage sensitive assays are based on the change in fluorescence resonant energy transfer (FRET) between the membrane-soluble, voltage-sensitive dye, DiSBAC2(3), and a fluorescent phospholipid, CC2-DMPE, which is attached to the outer leaflet of the plasma membrane and acts as a FRET donor. […]

# compound, Emax
rows = [
    ("Cc1ccc(NC(=O)C2(c3ccc4c(c3)OC(F)(F)O4)CC2)nc1-c1ccc(=O)n(C[C@@H](O)CO)c1 [Compound 79]", "> 100%"),
    ("CCc1ccc(NC(=O)C2(c3ccc4c(c3)OC(F)(F)O4)CC2)nc1-c1ccc(=O)[nH]c1 [Compound 5]", "50 to 100%"),
    ("Cc1c[nH]c(=O)c(-c2nc(NC(=O)C3(c4ccc5c(c4)OC(F)(F)O5)CC3)ccc2C)c1 [Compound 31]", "50 to 100%"),
    ("COc1cc(C)c(-c2nc(NC(=O)C3(c4ccc5c(c4)OC(F)(F)O5)CC3)ccc2C)cn1 [Compound 18]", "> 100%"),
    ("COc1ccc(C2(C(=O)Nc3ccc(C)c(-c4cccnc4OC)n3)CC2)cc1 [Compound 7]", "50 to 100%"),
    ("Cc1ccc(NC(=O)C2(c3ccc4c(c3)OC(F)(F)O4)CC2)nc1-c1ccc(=O)[nH]c1 [Compound 12]", "50 to 100%"),
    ("COc1cccc(C2(C(=O)Nc3ccc(C)c(-c4c[nH]c(=O)c(C)c4)n3)CC2)c1 [Compound 63]", "50 to 100%"),
    ("Cc1ccc(NC(=O)C2(c3ccc4c(c3)CCO4)CC2)nc1-c1c[nH]c(=O)c(C)c1 [Compound 76]", "50 to 100%"),
]
